Data provenance is patent US11820766B2.

Target: human MGL from HeLa cells (Homo sapiens, UniProt Q99685)
Construct: combining endogenously expressed MGL from HeLa cells with test compounds; endogenous in cells; host or cells: HeLa cells / cell homogenates
Test: In vitro MGL activity assay: [glycerol-1,3-3H]-oleyl glycerol cleavage by MGL from HeLa cells
Format: biochemical
Settings: 300 nM [Glycerol-1,3-3H]-oleyl glycerol, one hour
Source text: MGL is the predominant hydrolase in HeLa cells/cell homogenates.
pIC50: −log10 of the molar value.
Parameter Measured: pIC50

{"Smiles Str": "Cc1ccn2c(C(=O)N3CCc4c(nn(C)c4-c4cc(F)c(F)c(F)c4)[C@@H]3C)cnc2c1", "pIC50": 7.20}
{"Smiles Str": "Cc1cnc2c(C(=O)N3CCc4c(nn(C)c4-c4cc(F)c(F)c(F)c4)[C@@H]3C)ncn2c1", "pIC50": 5.99}
{"Smiles Str": "C[C@H]1c2nn(C)c(-c3cc(F)c(F)c(F)c3)c2CCN1C(=O)c1cnc2n1CCC2", "pIC50": 6.53}
{"Smiles Str": "C[C@H]1c2nn(C)c(-c3cc(F)c(F)c(F)c3)c2CCN1C(=O)c1cnn2ccccc12", "pIC50": 7.97}
{"Smiles Str": "Cc1cc(-c2c3c(nn2C)[C@H](C)N(C(=O)c2ccc4ncccc4c2)CC3)ccn1", "pIC50": 5.95}
{"Smiles Str": "C[C@H]1c2nn(C)c(-c3ccc4c(c3)OCO4)c2CCN1C(=O)c1ccc2ncccc2c1", "pIC50": 6.88}
{"Smiles Str": "C[C@H]1c2nn(C)c(-c3cc(F)c(F)c(F)c3)c2CCN1C(=O)c1n[nH]c2cccc(F)c12", "pIC50": 8.56}
{"Smiles Str": "C[C@H]1c2nn(C)c(-c3cc(F)c(F)c(F)c3)c2CCN1C(=O)c1cn(-c2ccccc2)cn1", "pIC50": 6.60}

1: Cc1cc(C)n2ccc(C(=O)N3CCc4c(nn(C)c4-c4cc(F)c(F)c(F)c4)[C@@H]3C)c2n1
2: Cc1cc2nc(C)c(C(=O)N3CCc4c(nn(C)c4-c4cc(F)c(F)c(F)c4)[C@@H]3C)n2cc1F
3: Cc1cnn2cccc(C(=O)N3CCc4c(nn(C)c4-c4cc(F)c(F)c(F)c4)[C@@H]3C)c12
input: Order field: pIC50 | Direction: descending (largest first) Reply with the item labels sorted in the order that was asked for.
output: 3, 2, 1

A: C[C@H]1c2nn(C)c(-c3cccc(OC(F)(F)F)c3)c2CCN1C(=O)c1ccc2ncccc2c1
B: C[C@H]1c2nn(C)c(-c3cc(F)c(F)c(F)c3)c2CCN1C(=O)c1ncnc2c1cnn2C
input: Could you kindly indicate whether A or B has the higher pIC50 value? Please respond with the label that marks your chosen entry.
output: B
(B: 7.49, A: 7.23)

I: Cc1ccc2c(C(=O)N3CCc4c(nn(C)c4-c4cc(F)c(F)c(F)c4)[C@@H]3C)c[nH]c2c1
II: C[C@H]1c2nn(C)c(-c3cc(F)c(F)c(F)c3)c2CCN1C(=O)c1cnc2n1CCCC2
input: Of the two listed items, which has the higher pIC50? First: I Second: II // return label of chosen record
output: I

###

Target: human MGL from HeLa cells (Homo sapiens, UniProt Q99685)
Construct: combining endogenously expressed MGL from HeLa cells with test compounds; endogenous in cells; host or cells: HeLa cells / cell homogenates
Test: In vitro MGL activity assay: [glycerol-1,3-3H]-oleyl glycerol cleavage by MGL from HeLa cells
Type: biochemical
Conditions: 300 nM [Glycerol-1,3-3H]-oleyl glycerol, one hour incubation
Parameter Measured: IC50 (nM)

{"Smiles Str": "Cn1nc2c(c1-c1ccccc1)CCN(C(=O)c1cc3[nH]ccc3s1)C2", "Parameter Measured": "IC50", "Recorded Result": 1230}

A: C[C@H]1c2nn(C)c(-c3cccc(Cl)c3)c2CCN1C(=O)c1cc2ncccc2o1
B: C[C@H]1c2nn(C)c(-c3cc(F)c(F)c(F)c3)c2CCN1C(=O)c1ccc2c(cnn2C)c1
C: C[C@H]1c2nn(C)c(-c3cc(F)c(F)c(F)c3)c2CCN1C(=O)c1cnn(C2CC2)c1
input: Order the records by IC50, with each subsequent value no larger than the one before. // format: requested-order list of labels
output: C, B, A
(C: 250 nM, B: 72.2 nM, A: 47.2 nM)

###

Target: human MGL from HeLa cells (Homo sapiens, UniProt Q99685)
Construct: combining endogenously expressed MGL from HeLa cells with test compounds; endogenous in cells; host or cells: HeLa cells / cell homogenates
Assay: In vitro MGL activity assay: [glycerol-1,3-3H]-oleyl glycerol cleavage by MGL from HeLa cells
Assay type: biochemical
Conditions: 300 nM [Glycerol-1,3-3H]-oleyl glycerol, one hour
pIC50: −log10 of the molar value.
Parameter Measured: pIC50

Study these solved cases before continuing.
{"Smiles Str": "Cc1cc(F)cc(-c2c3c(nn2C)[C@H](C)N(C(=O)c2ncnc4c2ccn4C)CC3)c1", "Tgt": "human MGL from HeLa cells (Homo sapiens, UniProt Q99685)", "pIC50": 8.07}
{"Smiles Str": "C[C@H]1c2nn(C)c(-c3cc(F)c(F)c(F)c3)c2CCN1C(=O)c1c(F)cnc2[nH]ccc12", "Tgt": "human MGL from HeLa cells (Homo sapiens, UniProt Q99685)", "pIC50": 8.73}
{"Smiles Str": "COc1cccc(-c2c3c(nn2C)[C@H](C)N(C(=O)c2ccc4ncccc4c2)CC3)c1", "Tgt": "human MGL from HeLa cells (Homo sapiens, UniProt Q99685)", "pIC50": 7.33}
{"Smiles Str": "Cc1cnc2c(C(=O)N3CCc4c(nn(C)c4-c4cc(F)c(F)c(F)c4)[C@@H]3C)cnn2c1", "Tgt": "human MGL from HeLa cells (Homo sapiens, UniProt Q99685)", "pIC50": 6.70}
{"Smiles Str": "C[C@H]1c2nn(C)c(-c3ccc(Cl)c(F)c3)c2CCN1C(=O)c1ccc2ncccc2c1", "Tgt": "human MGL from HeLa cells (Homo sapiens, UniProt Q99685)", "pIC50": 7.60}

1: C[C@H]1c2nn(C)c(-c3cc(F)cc4ccoc34)c2CCN1C(=O)c1ccc2ncccc2c1
2: Cc1nn2cccnc2c1C(=O)N1CCc2c(nn(C)c2-c2cc(F)c(F)c(F)c2)[C@@H]1C
input: In terms of reported pIC50, does 1 or 2 have the smaller number? Give the chosen item's label as your response.
output: 2

###

Molecular target: human MGL from HeLa cells (Homo sapiens, UniProt Q99685)
Construct: combining endogenously expressed MGL from HeLa cells with test compounds; endogenous in cells; host or cells: HeLa cells / cell homogenates
Assay: In vitro MGL activity assay: [glycerol-1,3-3H]-oleyl glycerol cleavage by MGL from HeLa cells
Assay type: biochemical
Settings: 300 nM [Glycerol-1,3-3H]-oleyl glycerol, one hour
Parameter Measured: IC50 (nM)

Example entries begin here.
{"Smiles Str": "C[C@H]1c2nn(C)c(-c3cc(F)c(F)c(F)c3)c2CCN1C(=O)c1n[nH]c2ccccc12", "Parameter Measured": "IC50", "Recorded Result": 14.6}
{"Smiles Str": "C[C@H]1c2nn(C)c(-c3cc(F)c(F)c(F)c3)c2CCN1C(=O)c1cccc2c1COCC2", "Parameter Measured": "IC50", "Recorded Result": 8.18}
{"Smiles Str": "C[C@H]1c2nn(C)c(-c3cc(F)c(F)c(F)c3)c2CCN1C(=O)c1cccc2oc(=O)n(C)c12", "Parameter Measured": "IC50", "Recorded Result": 25.4}

a: C[C@H]1c2nn(C)c(-c3cc(F)c(F)c(F)c3)c2CCN1C(=O)c1ccc2c(c1)COCC2
b: COc1cc(-c2c3c(nn2C)[C@H](C)N(C(=O)c2ccc4ncccc4c2)CC3)ccn1
input: Two entries are listed, a and b . Which one carries the higher IC50? Please identify the chosen entry by its label.
output: b
(b: 502 nM, a: 32.2 nM)

I: C[C@H]1c2nn(C)c(-c3cc(F)c(F)c(F)c3)c2CCN1C(=O)c1ccnc2c1OCCC2
II: C[C@H]1c2nn(C)c(-c3ccnc(C(F)(F)F)c3)c2CCN1C(=O)c1ccc2ncccc2c1
input: Could you check which of I and II has a smaller value for IC50? // caller expects the label of the chosen entry
output: I

###

Biological target: human MGL from HeLa cells (Homo sapiens, UniProt Q99685)
Construct: combining endogenously expressed MGL from HeLa cells with test compounds; endogenous in cells; host or cells: HeLa cells / cell homogenates
Sequence (Q99685 1-303): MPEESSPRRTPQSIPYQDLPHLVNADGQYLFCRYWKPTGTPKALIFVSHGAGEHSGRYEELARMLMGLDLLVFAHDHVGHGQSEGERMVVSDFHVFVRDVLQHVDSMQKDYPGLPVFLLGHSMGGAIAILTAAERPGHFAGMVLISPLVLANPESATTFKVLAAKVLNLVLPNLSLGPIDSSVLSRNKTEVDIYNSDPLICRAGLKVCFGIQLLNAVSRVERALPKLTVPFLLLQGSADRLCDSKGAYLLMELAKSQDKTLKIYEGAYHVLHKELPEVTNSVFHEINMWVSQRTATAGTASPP
Assay: In vitro MGL activity assay: [glycerol-1,3-3H]-oleyl glycerol cleavage by MGL from HeLa cells
Type: biochemical
Conditions: 300 nM [Glycerol-1,3-3H]-oleyl glycerol, one hour incubation
Parameter Measured: IC50 (nM)

Look over these answered cases.
{"Compound": "C[C@@H]1c2nn(C)c(-c3cc(F)c(F)c(F)c3)c2CCN1C(=O)c1ccc2ncccc2c1 [Example 235]", "Value Units": "nM", "IC50": 3660}
{"Compound": "Cn1nc2c(c1-c1ccccc1)CCN(C(=O)c1csc3ccccc13)C2 [Example 40]", "Value Units": "nM", "IC50": 141}
{"Compound": "C[C@H]1c2nn(C)c(-c3cc(F)c(F)c(F)c3)c2CCN1C(=O)c1cnn(C(C)(C)C)c1C(F)(F)F [Example 199]", "Value Units": "nM", "IC50": 172}
{"Compound": "Cn1nc2c(c1-c1ccccc1)CCN(C(=O)c1ccc3cncn3c1)C2 [Example 77]", "Value Units": "nM", "IC50": 5160}

a: CC1c2nn(C)c(-c3cc(F)cc(F)c3)c2CCN1C(=O)c1ccc2nccc(Br)c2c1 (centres unmarked) [Example 162]
b: C[C@H]1c2nn(C(F)F)c(-c3cc(F)c(F)c(F)c3)c2CCN1C(=O)c1ccc2ncccc2c1 [Example 232]
c: Cn1nc2c(c1-c1ccccc1)CCN(C(=O)c1c[nH]c3ccncc13)C2 [Example 83]
input: Arrange these 3 compounds in increasing order of IC50. Answer by writing out the labels in the requested order.
output: b, a, c
(b: 5.57 nM, a: 11.3 nM, c: 1500 nM)

I: CC1c2nn(C)c(-c3cc(F)cc(F)c3)c2CCN1C(=O)c1cc2ccccc2cn1 (centres unmarked) [Example 160]
II: C[C@H]1c2nn(C)c(-c3cc(F)c(F)c(F)c3)c2CCN1C(=O)c1cccc(-n2cncn2)c1 [Example 194]
III: COc1c(C)cccc1C(=O)N1CCc2c(nn(C)c2-c2ccccc2)C1 [Example 7]
IV: COc1nccc(C(=O)N2CCc3c(nn(C)c3-c3cc(F)c(F)c(F)c3)[C@@H]2C)c1F [Example 315]
V: Cn1nc2c(c1-c1ccccc1)CCN(C(=O)c1c[nH]c3cccc(Cl)c13)C2 [Example 49]
input: Arrange the 5 compounds from largest to smallest IC50. Quick reminder: the answer is the labels in the order asked.
output: V, I, III, IV, II

a: Cn1nc2c(c1-c1ccccc1)CCN(C(=O)c1cccc3ccoc13)C2 [Example 33]
b: Cn1nc2c(c1-c1ccccc1)CCN(C(=O)c1cccc3ncsc13)C2 [Example 59]
c: Cc1cc(F)cc(-c2c3c(nn2C)[C@H](C)N(C(=O)c2cnn(C)c2C)CC3)c1 [Example 327]
input: Number of compounds to sort: 3. Sort criterion: IC50, ascending. Rank the items, then write their labels in that order.
output: c, a, b
